src = paper doi:10.1101/2025.10.31.685654v2

target: Dm-DopC1 (Daphnia magna, UniProt Z9WC39ES65, D188N); construct: full-length homomeric pentamer expressed from cRNA in Xenopus laevis oocytes; predicted signal peptide residues 1-26; assay: two-electrode voltage clamp, Xenopus oocytes
Sequence (Z9WC39ES65 27-520 D188N limits assumed): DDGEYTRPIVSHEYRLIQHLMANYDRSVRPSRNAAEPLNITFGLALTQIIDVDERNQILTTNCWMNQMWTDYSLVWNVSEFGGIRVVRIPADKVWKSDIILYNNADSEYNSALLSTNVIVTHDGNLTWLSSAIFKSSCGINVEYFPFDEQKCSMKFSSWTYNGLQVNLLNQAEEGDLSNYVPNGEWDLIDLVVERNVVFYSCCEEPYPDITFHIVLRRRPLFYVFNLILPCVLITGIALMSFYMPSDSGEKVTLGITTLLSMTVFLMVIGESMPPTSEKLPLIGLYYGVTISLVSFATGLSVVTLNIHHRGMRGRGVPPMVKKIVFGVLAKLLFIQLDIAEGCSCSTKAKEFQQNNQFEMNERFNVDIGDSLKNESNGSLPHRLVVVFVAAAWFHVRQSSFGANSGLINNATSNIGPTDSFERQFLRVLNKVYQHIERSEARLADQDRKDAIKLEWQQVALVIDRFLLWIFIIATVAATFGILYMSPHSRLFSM
Observed Property: EC50

[Q] May I ask what EC50 has been recorded for NCCc1ccc(O)c(O)c1 ?
[A] > 9 mM

###

molecular target: Dm-DopC1 (Daphnia magna, UniProt Z9WC39ES65, N92T); construct: full-length homomeric pentamer expressed from cRNA in Xenopus laevis oocytes; predicted signal peptide residues 1-26; assay: two-electrode voltage clamp, Xenopus oocytes
Sequence (Z9WC39ES65 27-520 N92T limits assumed): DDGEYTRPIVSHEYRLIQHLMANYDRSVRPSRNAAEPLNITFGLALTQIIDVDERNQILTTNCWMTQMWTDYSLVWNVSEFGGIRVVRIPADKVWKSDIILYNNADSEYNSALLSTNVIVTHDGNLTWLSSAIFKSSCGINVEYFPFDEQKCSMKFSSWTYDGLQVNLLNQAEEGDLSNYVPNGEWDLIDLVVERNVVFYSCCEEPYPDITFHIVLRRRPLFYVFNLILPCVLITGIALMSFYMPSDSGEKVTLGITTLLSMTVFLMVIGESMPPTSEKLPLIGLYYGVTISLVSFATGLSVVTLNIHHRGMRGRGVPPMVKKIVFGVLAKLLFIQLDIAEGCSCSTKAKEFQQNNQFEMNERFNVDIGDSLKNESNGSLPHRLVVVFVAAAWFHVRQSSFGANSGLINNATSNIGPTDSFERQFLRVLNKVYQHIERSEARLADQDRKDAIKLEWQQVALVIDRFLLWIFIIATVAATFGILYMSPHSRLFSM
Observed Property: EC50 (µM)
Write the answer as a number in µM, unit excluded.

[Q] May I ask what EC50 has been recorded for NC[C@H](O)c1ccc(O)c(O)c1 [norepinephrine] ?
[A] 440
